Target: Phosphatidylinositol 4,5-bisphosphate 3-kinase catalytic subunit delta isoform (Homo sapiens, UniProt O00329)
Sequence (O00329 whole entry, canonical isoform): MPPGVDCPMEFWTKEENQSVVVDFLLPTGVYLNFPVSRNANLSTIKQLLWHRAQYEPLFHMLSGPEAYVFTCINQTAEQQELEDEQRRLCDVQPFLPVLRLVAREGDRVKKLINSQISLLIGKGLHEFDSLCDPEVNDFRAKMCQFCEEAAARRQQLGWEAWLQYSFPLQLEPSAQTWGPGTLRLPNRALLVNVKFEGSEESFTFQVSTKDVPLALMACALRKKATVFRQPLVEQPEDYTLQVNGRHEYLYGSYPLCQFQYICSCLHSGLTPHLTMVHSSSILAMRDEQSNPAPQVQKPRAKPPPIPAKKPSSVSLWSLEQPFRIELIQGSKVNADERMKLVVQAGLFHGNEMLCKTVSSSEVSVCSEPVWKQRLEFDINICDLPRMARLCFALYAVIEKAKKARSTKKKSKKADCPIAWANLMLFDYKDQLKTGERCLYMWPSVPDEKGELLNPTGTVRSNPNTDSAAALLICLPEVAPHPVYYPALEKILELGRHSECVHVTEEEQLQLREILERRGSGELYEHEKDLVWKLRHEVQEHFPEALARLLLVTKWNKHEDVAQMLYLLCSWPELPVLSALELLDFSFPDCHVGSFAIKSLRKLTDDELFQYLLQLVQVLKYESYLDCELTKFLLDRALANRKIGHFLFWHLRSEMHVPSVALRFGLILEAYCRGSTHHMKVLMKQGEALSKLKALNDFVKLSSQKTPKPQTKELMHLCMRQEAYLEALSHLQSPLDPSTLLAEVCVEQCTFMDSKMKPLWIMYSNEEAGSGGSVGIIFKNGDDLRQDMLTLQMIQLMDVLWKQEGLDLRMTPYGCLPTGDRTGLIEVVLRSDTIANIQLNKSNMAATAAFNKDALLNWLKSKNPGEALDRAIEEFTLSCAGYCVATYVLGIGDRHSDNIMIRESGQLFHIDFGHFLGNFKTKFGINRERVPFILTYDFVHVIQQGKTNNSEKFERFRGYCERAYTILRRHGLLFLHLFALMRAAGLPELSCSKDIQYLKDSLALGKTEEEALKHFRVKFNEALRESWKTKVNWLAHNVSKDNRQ
Assay comment: Inhibition Assays of p110α/p85α, p110β/p85α, p110δ/p85α, and p110γ
pIC50: −log10 of the molar value.
Reported pIC50 is given for each of the following compounds.

Chem smiles | pIC50
Cc1ccccc1-n1c(Cn2cnc3c(N)ncnc32)cc2cccc(C)c2c1=O | > 5.00
Cc1csc2ncnc(N[C@@H](C)c3cc4cccc(Cl)c4c(=O)n3-c3ccccc3)c12 | > 7.00

Give pIC50 for `CC(C)n1c(Cn2nc(I)c3c(N)ncnc32)cc2ccccc2c1=O`
> 5.00

Supply pIC50 value. Item: `C[C@H](Nc1ncnc2ccsc12)c1cc2cccc(Cl)c2c(=O)n1-c1ccccc1`
> 7.00
